# Tested on: Escherichia coli TOP10;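 further: peptides expressed intracellularly from a pBAD plasmid library in pooled LB shake-flask culture, induced with 0.3% L-arabinose, DNA abundance read by NGS, three biological replicates, DESeq2 with apeglm shrinkage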
# procedure-details: shrunken log2 fold change of peptide-encoding DNA abundance (4.5 h post-induction vs induction); higher = less antimicrobial activity (less host growth inhibition)
# condition: time post-induction: 4.5 h; library: site-saturation at positions 5, 18, 19, 20
Binary classification by shrunken log2 fold change, with -0.06 as an inclusive lower bound for condition met; all other cases are condition not met.

> print(dat)
          ordered.residues    group.label
1  RRIRKRPPRLPRPRPRPGKVPRP  condition met

Q: Could you verify whether the entry RRIRNRPPRLPRPRPRPKLQPRP shows shrunken log2 fold change of no less than -0.06?
Result: condition met

Q: Subsequent entry: RRIRNRPPRLPRPRPRPRTLPRP
Result: condition not met

Q: Subsequent entry: RRIRERPPRLPRPRPRPVAPPRP
Result: condition met
